# Test system: HOP-62 NSCLC
# Method: NCI-60 one-dose screen, 48 h
# Condition Set: 10 µM unless noted
The panel holds about 83,000 compounds, 20% with a hit somewhere; the sample as a whole holds those more often. The source made the active and inactive calls. How the source made its calls: active means growth percent below 10; inactive means the rest.
// classify into active, inactive

Completed entries (count: 3):
CCn1c2ccc(/C=N/NS(=O)(=O)CCN(C)C)cc2c2cc(/C=N/NS(=O)(=O)CCN(C)C)ccc21; inactive
O=C1[C@H]2Cc3c([nH]c4ccccc34)[C@@H](c3ccc(Cl)cc3)N2C(=O)CN1C1CCN(Cc2c(Cl)cccc2Cl)CC1; inactive
CN(c1ccc(F)cc1)S(=O)(=O)c1ccc(-c2cnc(C3CC3)o2)cc1; inactive

Hi team, can someone confirm the assay call for `COC1=C(c2ccccc2)C(=O)C(OC)=C(c2ccccc2)C1=O` ?
inactive

// return assay outcome for O=C(COc1ccc(C2SCC(=O)N2c2ccccc2)cc1)c1ccccc1 (stereo not drawn)
inactive

Tell me the assay call for `C=C1C(=O)O[C@@H]2C[C@@H](C)CCC(=O)[C@](C)(OC(C)=O)C[C@H](OC(=O)/C(C)=C\C)[C@@H]12` please.
inactive

I would be grateful if you could indicate the recorded call for `O=C(O)CNS(=O)(=O)c1ccc(Oc2ccc(S(=O)(=O)NCC(=O)O)cc2)cc1` .
inactive

// outcome(item) with item = CCN1C(=O)N(CC)C2SC(N/N=C/c3ccccc3)=NC21 (stereo not drawn)
inactive

Call for entry `O=C(Nc1ccccc1)Nc1nc2ccc([N+](=O)[O-])cc2s1` :
active

I would be grateful if you could indicate the recorded call for `CCOC(=O)c1nn(-c2ccc(C)cc2)c(=O)c2c(N)c(C#N)c(-c3ccc(OC)cc3)cc12` .
inactive

// param item: `COc1cc2c3c(n(CCCNC4CCC4)c(=O)c2cc1OC)-c1cc2c(cc1C3=O)OCO2` ; yields the recorded call
active

Name the outcome recorded for `C#CCOc1ccc(/C=N/Nc2nc(-c3cc(Cl)ccc3Cl)cs2)cc1` in the assay.
inactive

Please indicate how the test categorized `COc1cc(-c2nc(SCc3ccc(C)cc3)[nH]c(=O)c2C#N)ccc1OCc1ccccc1` .
inactive

Dear all, I need the recorded test outcome for `C#C[C@]1(O)CC[C@H]2[C@@H]3CC=C4c5sc(Nc6ccncc6)nc5CC[C@]4(C)[C@H]3CC[C@@]21C` , thank you.
active

---

# System: IGROV1 ovarian
# Method: NCI-60 one-dose screen, 48 h (100 = growth as untreated, 0 = no growth, -100 = all killed)
# Condition Set: 10 µM unless noted
The panel holds about 83,000 compounds, 20% with a hit somewhere; the sample as a whole holds those more often.
Parameter: growth (%)
State the answer as a number, implicitly in %.

Would you please look over these solved cases?
CS(=O)(=O)c1nccc(-c2c(-c3ccc(F)c(OCCc4ccc(F)cc4)c3)nc3sccn23)n1; -64.9
CCN(CC)CCN1C(=O)c2c(c3c4cccnc4[nH]c3c3ccc4ccccc4c23)C1=O; 55
CCCCCCNC(=O)Oc1ccc(/C(=C(\C)c2ccc(Cl)cc2)c2ccc(OCCN(C)C)cc2)cc1; 44.7
N#C/C(=C\c1ccc(Cl)cc1Cl)C(N)=O; 102
CCOc1c(C#N)c(Nc2ccc(S(N)(=O)=O)cc2)c(C#N)c2nnc(C)n12; 101

I'd like to know its growth. The compound in question is `NS(=O)(=O)c1ccc(-n2cc(CC=O)nn2)cc1`
102

---

# Tested on: UO-31 renal
# Method: NCI-60 one-dose screen, 48 h (100 = growth as untreated, 0 = no growth, -100 = all killed)
# Condition Set: 10 µM unless noted
About 83,000 compounds went through this panel and 20% of them were active in at least one assay; those are over-represented in the sample as a whole.
Parameter: growth (%)
Supply the numeric figure in %, leaving out any unit text.

Some compounds with recorded growth:
CS(=O)c1nccc(-c2c(-c3ccc(F)c(OCc4ccccc4)c3)nc3sccn23)n1 (centres undefined); 94.9
COc1ccc([C@@H]2[C@@H](O)C(=O)N2c2cc(OC)c(OC)c(OC)c2)cc1Cl; 31.8
CCN1C(=O)N(CC)C2SC(N/N=C/c3ccccc3)=NC21 (centres undefined); 54.6
CC(C)SC1=NC(=C(C(=N1)NC2=ClC=CC=C2)C#N)C3=CC=CC=C3; 24.7
C#CCOc1ccc(/C=N/Nc2nc(-c3cc4cc(Br)cc(Br)c4oc3=O)cs2)cc1; 88.5
CC1(C)CC[C@]2(C(=O)O)CC[C@]3(C)C(=CCC4[C@@]5(C)C[C@@H](O)[C@@H]6OC(c7ccccc7O)OC[C@@]6(C)C5CC[C@]43C)C2C1 (some centres undefined); 54.8
CNC(=O)c1cc(Oc2ccc3nc(NC(=O)c4ccc(CN5CCCN(C)CC5)c(C(F)(F)F)c4)sc3c2)ccn1; 4.18
CN(C)c1ccc(/C=N/Nc2nc(N/N=C/c3ccc(N(C)C)cc3)nc(N3CCOCC3)n2)cc1; 90.7

growth for `O=C(NCCCNc1cc(-c2cn(-c3ccccc3)nc2-c2cccc(O)c2)ccn1)Nc1ccc(F)cc1` ?
6.93

Would you kindly share the measured growth for CCCC(=O)NC(c1cccnc1)c1cc(C(C)=O)c2cccnc2c1O (centres undefined) ?
13.6

# input compound: `CCN1C/C(=N\S(=O)(=O)c2ccccc2)N(CC)C1=S` ; wanted: its growth
89.9

For the compound CC1COc2c(N3CCN(C)CC3)c(F)cc3c(=O)c(C(=O)N/N=C/c4cc[nH]c4)cn1c23 (centres undefined) , what growth is on record?
54

Would you mind telling me what growth value was observed for `COc1cc(/C=N/n2cnc3oc(-c4ccccc4)cc3c2=N)cc(CN2CCOCC2)c1O` ?
74

What does the record list as growth for `Cc1cn(-c2cc(NC(=O)c3cncc(C#Cc4cnc5ccc(O[C@H]6CCOC6)nn45)c3)cc(C(F)(F)F)c2)cn1` ?
55.7

Name the recorded growth for `COc1ccc([C@@H]2[C@@H](O)C(=O)N2c2cc(OC)c(OC)c(OC)c2)cc1` .
29.9

Please look up its growth: `CCn1c2ccc(/C=N/OCCCN(C)C)cc2c2cc(/C=N/OCCCN(C)C)ccc21`
-90.4

---

# Tested on: HOP-92 NSCLC
# Method: NCI-60 one-dose screen, 48 h (100 = growth as untreated, 0 = no growth, -100 = all killed)
# Condition Set: 10 µM unless noted
About 83,000 compounds went through this panel and 20% of them were active in at least one assay; those are over-represented in the sample as a whole. Active and inactive are the calls of the source. How the source made its calls: active means growth percent below 10; inactive means the rest.
Parameter: growth

CC(=O)NC(C)(C)C(=O)N1CCC[C@H]1C(=O)NC(C)(C)C(=O)N[C@@H](C)C(=O)NC(C)(C)C(=O)N[C@@H](C)C(=O)N[C@@H](CCC(N)=O)C(=O)NC(C)(C)C(=O)N[C@H](C(=O)NC(C)(C)C(=O)NCC(=O)N[C@@H](CC(C)C)C(=O)NC(C)(C)C(=O)N1CCC[C@H]1C(=O)N[C@H](C(=O)NC(C)(C)C(=O)NC(C)(C)C(=O)N[C@@H](CCC(N)=O)C(=O)N[C@@H](CCC(N)=O)C(=O)N[C@H](CO)Cc1ccccc1)C(C)C)C(C)C; 60% [4.25 µM] (inactive)

Next compound, please.
Hello, I am looking for reported growth with HOP-92 NSCLC for `COc1cc(/C=N/n2cnc3oc(-c4ccccc4)cc3c2=N)cc(CN2CCCC2)c1O` . Could you help?
77.9% (inactive)

---

Reported growth by item:
# Test system: SW-620 colon
# Method: NCI-60 one-dose screen, 48 h (100 = growth as untreated, 0 = no growth, -100 = all killed)
# Condition Set: 10 µM unless noted
This is part of a sample that, as a whole, favours compounds with a hit. Of some 83,000 tested, about 20% had one in any assay.
Quick reminder: number only, in %, skip the unit.

Cc1ccc(-c2cc(-c3ccc(N(C)C)cc3)n3c(n2)nc2ccccc23)cc1; 80.1
CCOC(=O)c1c(Nc2ccccc2)nn2c(-c3ccc(OC)c(OC)c3)ccnc12; 40.9
C#C[C@]1(O)CC[C@H]2[C@@H]3CC=C4c5sc(-c6cccc(F)c6)nc5CC[C@]4(C)[C@H]3CC[C@@]21C; 89.7
O=C(CN1CCN(c2cc(=O)n(-c3ccccc3)c3ccccc23)CC1)Nc1ccc([N+](=O)[O-])cc1; 92.3
Nc1nc(N)c2c(n1)NC(c1ccccc1)CC(c1ccc(Nc3nc(NCCO)nc(Nc4ccc(Cl)cc4)n3)cc1)=N2 (configuration not stated); -83.3
C/C(=C(/C)C1CC1CCN(C(=O)c1ccccn1)S(=O)(=O)c1ccc(C)cc1)C1CCCCC1 (configuration not stated); 103
COc1ccc2c(C3=C(c4cn(C)c5ccccc45)C(=O)NC3=O)coc2c1; 39
Cc1ccc(NC(=O)c2cccc(CN3CCN(C)CC3)c2)cc1Oc1ccc(-c2[nH]nc3ncnc(N)c23)cc1; 48.6

Next compound, growth to be filled in.
Tell me the measured growth of CCOC(=O)/C(F)=C/C1CC1CCc1cccc(C(F)(F)F)c1 (configuration not stated) , please.
102
